# TEST DESCRIPTION: soluble fraction after stress (log2 fold change); higher = more stays soluble; pooled small domains, quantitative proteomics;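 note: 20 min heating vs room temperature control held 20 min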
# EXPERIMENTAL CONTEXT: stress: 75 degC
VALUE TYPE: soluble fraction (log2)
Returns: the value as a bare number; no unit string appended.

SEQUENCE STRING | VALUE TYPE | MEASURED NUMBER
HMLAQVSDEGPIRAMVEAVMARSTQQLEDYKNGKVKLRQYFFGEVMKAAKGKANPTVINKLLDEMLPETL | soluble fraction (log2) | -0.314
HMPFESEMKHWIHLFAHELNLKVSDKYTQKIIEIFGNNFSEIFNEMSKSSLVSSNEKDLLNALEKSGNIH | soluble fraction (log2) | -0.799
HMATRAEQMAKTHQAILDTARELFLRNGYDATSTRDIANAIGITQPALYHHFKDKEVIFLAVI | soluble fraction (log2) | -0.107

Let us move to another entry and its soluble fraction (log2).
response.value for "HMLSNYIGMTLGEAKRNLGQGVNITVNGPNNDNAEVTGQDPTSGSSFDKSKDTITLTT" (field: soluble fraction (log2)) = 0.148
